Species: Mus musculus
assay.text: Analgesic activity as percentage analgesic efficacy on male albino swiss-webster mice with the hotplate test
Assay type: functional
Set-up: concentration or dose not given beside the values
Here, each record is paired with measured Analgesic efficacy data.
# number only, unit % dropped from output

Past entries and their recorded results:
For the compound CCN1C2CCC1CC(OC(=O)C(CO)c1ccccc1)C2 (centres undefined) , what Analgesic efficacy is on record?
33

Can you check CC(C(=O)OC1CC2CCC(C1)N2C)c1ccsc1 (centres undefined) next?
44

Please answer likewise for CC(C(=O)OC1CC2CCC(C1)N2C)c1ccc(Cl)cc1.O=C(O)/C=C\C(=O)O (centres undefined)
83

Switching to the query record.
Report Analgesic efficacy for CC(C(=O)OC1CC2CCC(C1)N2C)c1ccc(N)cc1 (centres undefined) please.
41

Reference source for all entries: ChEMBL document CHEMBL1127532
